- protocol-summary: Plasma and brain pharmacokinetics after single i.p. dose
- Assay type: in vivo
- settings: mouse, ip; plasma; 10 mg/kg i.p., female BALB/c mice
recorded-metric: Tmax (min)

>>> quantitative_readout("CN1CCN(c2ncc(-c3ccc4c(Nc5ccc(OCc6cccc(F)c6)c(Cl)c5)ccnc4c3)cn2)CC1 [Compound 14]")
15

====

- protocol-summary: Plasma and brain pharmacokinetics after single i.p. dose
- Type: in vivo
- settings: mouse, ip; plasma; 10 mg/kg i.p., female BALB/c mice
- Description: PK parameters were measured for both brain and plasma following a single intraperitoneal (i.p.) dose of 10 mg/kg (see Supplementary information, S5 and S6 Tables). Table S5. […] *The density of brain homogenate was considered as 1 which is equivalent to plasma density (1); Brain conc. and exposure expressed as ng/g and hr.ng/g, respectively. NC – not calculated due to improper elimination phase […]
recorded-metric: AUC(0-t)

>>> result("CN1CCN(c2ncc(-c3ccc4c(Nc5ccc(OCc6cccc(F)c6)c(Cl)c5)ccnc4c3)cn2)CC1")
"468 ng·h/mL"

====

- System: T. b. brucei (strain 427)
- protocol-summary: T. b. brucei proliferation assay (PrestoBlue, 48 h)
- Assay type: cell-based, Trypanosoma brucei brucei
# EC50 per entry
recorded-metric: EC50 (µM)

>>> quantitative_readout("Cc1cc(Nc2ccnc3cc(-c4ccc(S(=O)(=O)N5CCN(C)CC5)cc4)ccc23)sn1")
0.6
>>> quantitative_readout("Cc1nnc(Nc2ccc3c(Nc4cnccn4)ccnc3c2)nc1C")
2.3
>>> quantitative_readout("Cc1nn(C)c(C)c1Nc1ccc2c(Nc3cnccn3)ccnc2c1")
23
>>> quantitative_readout("Cn1nccc1Nc1ccc2c(Nc3cnccn3)ccnc2c1")
14
>>> quantitative_readout("Cn1ccnc1Nc1ccc2c(Nc3cnccn3)ccnc2c1")
49
>>> quantitative_readout("Cn1cc(Nc2ccc3c(Nc4cnccn4)ccnc3c2)cn1")
14
>>> quantitative_readout("Cc1cc(Nc2ccc3c(Nc4cnccn4)ccnc3c2)sn1")
7.6

====

The following compounds are listed with their measured log10 of solubility values.
- protocol-summary: Aqueous solubility
- Type: physicochemical
recorded-metric: log10 of solubility (log10 of the value in µM)

>>> quantitative_readout("CC(C)(C)OC(=O)Nc1ccc2c(Nc3ccc(OCc4cccc(F)c4)c(Cl)c3)ccnc2c1")
-0.70
>>> quantitative_readout("Cc1nn(C)c(C)c1Nc1ccc2c(Nc3cnccn3)ccnc2c1")
2.76
>>> quantitative_readout("CN1CCN(c2ncc(-c3ccc4c(Nc5cnccn5)ccnc4c3)cn2)CC1")
1.64
>>> quantitative_readout("Cc1ccc(-c2ccc3c(Nc4cnccn4)ccnc3c2)o1")
0.60
>>> quantitative_readout("CN1CCN(c2ccnc(Nc3ccc4c(Nc5ccc(OCc6cccc(F)c6)c(Cl)c5)ccnc4c3)n2)CC1")
0.00

====

- protocol-summary: Human plasma protein binding
- Assay type: in vitro ADME
# key: entry, value: Human PPB
recorded-metric: Human PPB (%)

>>> quantitative_readout("COc1ccc(Nc2ccnc3cc(-c4cnc(N5CCN(C)CC5)nc4)ccc23)cc1Cl [Compound 23]")
98
>>> quantitative_readout("c1cnc(Nc2ccnc3cc(Nc4nccs4)ccc23)cn1 [NEU-2141]")
91
>>> quantitative_readout("COc1ccc(Nc2ccnc3cc(-c4ccc(S(=O)(=O)N5CCN(C)CC5)cc4)ccc23)cc1Cl [Compound 6]")
99
>>> quantitative_readout("CN1CCN(S(=O)(=O)c2ccc(-c3ccc4c(Nc5ccnnc5)ccnc4c3)cc2)CC1 [NEU-1020]")
57
>>> quantitative_readout("CN1CCN(c2ncc(-c3ccc4c(Nc5ccc6[nH]nnc6c5)ccnc4c3)cn2)CC1 [NEU-1957]")
91
>>> quantitative_readout("c1coc(-c2ccc3c(Nc4cnccn4)ccnc3c2)c1 [NEU-2131]")
98
>>> quantitative_readout("COc1ccc(Nc2ccnc3cc(-c4cn[nH]c4)ccc23)cc1Cl [NEU-2087]")
97
>>> quantitative_readout("Cn1nccc1Nc1ccc2c(Nc3cnccn3)ccnc2c1 [NEU-2144]")
69
>>> quantitative_readout("c1cnc(Nc2ccnc3cc(Nc4nccnn4)ccc23)cn1 [NEU-2145]")
75
>>> quantitative_readout("Cc1cnc(Nc2ccc3c(Nc4cnccn4)ccnc3c2)s1 [NEU-2149]")
96
>>> quantitative_readout("Cc1cc(Nc2ccnc3cc(-c4ccc(S(=O)(=O)N5CCN(C)CC5)cc4)ccc23)sn1 [NEU-1023]")
99
>>> quantitative_readout("Cc1ccc(-c2ccc3c(Nc4cnccn4)ccnc3c2)o1 [NEU-2133]")
99
>>> quantitative_readout("Cn1cc(Nc2ccc3c(Nc4cnccn4)ccnc3c2)cn1 [NEU-2143]")
63
>>> quantitative_readout("CN1CCN(S(=O)(=O)c2ccc(-c3ccc4c(Nc5cccnc5)ccnc4c3)cc2)CC1 [NEU-1019]")
85
>>> quantitative_readout("COc1ccc(Nc2ccnc3cc(Nc4nccc(N5CCN(C)CC5)n4)ccc23)cc1Cl [NEU-2090]")
99
>>> quantitative_readout("CN1CCN(c2ccc(Nc3ccc4c(Nc5cnccn5)ccnc4c3)cc2)CC1 [NEU-2096]")
88
>>> quantitative_readout("CN1CCN(S(=O)(=O)c2ccc(-c3ccc4c(Nc5ncc(Cl)cn5)ccnc4c3)cc2)CC1 [NEU-1025]")
99
>>> quantitative_readout("Cc1nnc(Nc2ccnc3cc(-c4ccc(S(=O)(=O)N5CCN(C)CC5)cc4)ccc23)nc1C [NEU-1028]")
93

====

Below is a list of entries, each paired with its recorded pEC50 value.
- Test system: T. cruzi amastigote (Tulahuen strain expressing β-galactosidase)
- protocol-summary: Intracellular T. cruzi assay in 3T3 cells (beta-galactosidase, 96 h)
- Assay type: cell-based, Trypanosoma cruzi
- settings: intracellular in 3T3 cells, 96 h; read-out: T. cruzi amastigote EC50
pEC50: −log10 of the molar value.
recorded-metric: pEC50

>>> quantitative_readout("Cn1cc(-c2ccc3c(Nc4cnccn4)ccnc3c2)cn1")
5.62
>>> quantitative_readout("COc1ccc(Nc2ccnc3cc(-c4ccc(C)o4)ccc23)cc1Cl")
5.92
>>> quantitative_readout("Cc1cc(Nc2ccnc3cc(-c4ccc(S(=O)(=O)N5CCN(C)CC5)cc4)ccc23)sn1")
4.60
>>> quantitative_readout("CN1CCN(S(=O)(=O)c2ccc(-c3ccc4c(Nc5ncc(Cl)cn5)ccnc4c3)cc2)CC1")
5.06
>>> quantitative_readout("c1cnc(Nc2ccnc3cc(Nc4nccs4)ccc23)cn1")
4.66

====

// values below are reported solubility
- protocol-summary: Aqueous solubility
- Assay type: physicochemical
recorded-metric: solubility (µM)

>>> quantitative_readout("CN1CCN(S(=O)(=O)c2ccc(-c3ccc4c(Nc5ncc(Cl)cn5)ccnc4c3)cc2)CC1")
4.8
>>> quantitative_readout("Cc1nnc(Nc2ccnc3cc(-c4ccc(S(=O)(=O)N5CCN(C)CC5)cc4)ccc23)nc1C")
1.5
>>> quantitative_readout("c1cnc(Nc2ccnc3cc(-c4cn[nH]c4)ccc23)cn1")
1
>>> quantitative_readout("COc1ccc(Nc2ccnc3cc(-c4ccc(S(=O)(=O)N5CCN(C)CC5)cc4)ccc23)cc1")
9
>>> quantitative_readout("c1coc(-c2ccc3c(Nc4cnccn4)ccnc3c2)c1")
6
>>> quantitative_readout("c1cnc(Nc2ccnc3cc(Nc4nccs4)ccc23)cn1")
4
>>> quantitative_readout("COc1ccc(Nc2ccnc3cc(-c4cn[nH]c4)ccc23)cc1Cl")
2

====

- protocol-summary: Rat hepatocyte intrinsic clearance
- Assay type: in vitro ADME
- settings: hepatocytes
hepatocyte CLint overview
recorded-metric: hepatocyte CLint

>>> result("COc1ccc(Nc2ccnc3cc(-c4ccc(S(=O)(=O)N5CCN(C)CC5)cc4)ccc23)cc1Cl [Compound 6]")
"44 µL/min/1e6 cells"
>>> result("Fc1cccc(COc2ccc(Nc3ccnc4cc(-c5cn[nH]c5)ccc34)cc2Cl)c1 [Compound 16]")
"17 µL/min/1e6 cells"
>>> result("COc1ccc(Nc2ccnc3cc(-c4ccc(S(=O)(=O)N5CCN(C)CC5)cc4)ccc23)cc1 [Compound 9]")
"58 µL/min/1e6 cells"
>>> result("CN1CCN(S(=O)(=O)c2cccc(-c3ccc4c(Nc5ccc(OCc6cccc(F)c6)c(Cl)c5)ccnc4c3)c2)CC1 [Compound 13]")
"24 µL/min/1e6 cells"
>>> result("CN1CCN(S(=O)(=O)c2ccc(-c3ccc4c(Nc5cccc(Cl)c5)ccnc4c3)cc2)CC1 [Compound 7]")
"15 µL/min/1e6 cells"
>>> result("CN1CCN(c2ccnc(Nc3ccc4c(Nc5ccc(OCc6cccc(F)c6)c(Cl)c5)ccnc4c3)n2)CC1 [Compound 19]")
"4.6 µL/min/1e6 cells"
>>> result("CN1CCN(c2ncc(-c3ccc4c(Nc5cnccn5)ccnc4c3)cn2)CC1 [Compound 22]")
"130 µL/min/1e6 cells"

====

- protocol-summary: Aqueous solubility
- Type: physicochemical
solubility reference
recorded-metric: solubility (µM)

>>> quantitative_readout("c1cnc(Nc2ccnc3cc(Nc4nccnn4)ccc23)cn1 [NEU-2145]")
3
>>> quantitative_readout("Cn1ccnc1Nc1ccc2c(Nc3cnccn3)ccnc2c1 [NEU-2147]")
160
>>> quantitative_readout("Cn1nccc1Nc1ccc2c(Nc3cnccn3)ccnc2c1 [NEU-2144]")
100
>>> quantitative_readout("COc1ccc(Nc2ccnc3cc(Nc4nccc(N5CCN(C)CC5)n4)ccc23)cc1Cl [NEU-2090]")
570
>>> quantitative_readout("COc1ccc(Nc2ccnc3cc(-c4ccc(C)o4)ccc23)cc1Cl [NEU-2134]")
0.1
>>> quantitative_readout("CN1CCN(S(=O)(=O)c2ccc(-c3ccc4c(Nc5cccnc5)ccnc4c3)cc2)CC1 [NEU-1019]")
175
